- assay.details: in vivo
- condition.label: mouse, po
Each entry below lists one item and its recorded LD50 value.
attribute.measured: LD50

C=CCN1CCN(N=Cc2c3c(O)c4c(O)c(C)c5c(c4c2O)C(=O)C(C)(OC=CC(OC)C(C)C(OC(C)=O)C(C)C(O)C(C)C(O)C(C)C=CC=C(C)C(=O)N3)O5)CC1 (centres unmarked); ~1500 mg/kg
C#CCN1CCN(N=Cc2c3c(O)c4c(O)c(C)c5c(c4c2O)C(=O)C(C)(OC=CC(OC)C(C)C(OC(C)=O)C(C)C(O)C(C)C(O)C(C)C=CC=C(C)C(=O)N3)O5)CC1 (centres unmarked); > 2000 mg/kg
